Provenance of the data: the supplement of paper PMC10567573

B1: MIA2 (parent)
chain: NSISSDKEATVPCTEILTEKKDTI

Variants of: B1
test.protocol: protein stability index of a GFP-peptide fusion (GPS, HEK-293T) (PSI 1-6); higher = more stable;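 further: lentivirally expressed fusions sorted by FACS into six bins by GFP to DsRed ratio, PSI derived from sequencing read proportions per bin multiplied by bin number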
details: c terminus: a fixed tail appended
Kindly supply the reported protein stability index values for the records listed here.
Give bare numbers.

See these solved cases before continuing.
NSISSDKEATVPCTQILTEKKDTI
5.32
NSIWSDKEATVPCTEILTEKKDTI
5.11
NSISSDKEATVPCTEILTEIKDTI
5.15
NSISSDKEATVPCTEILTEKGDTI
5.16
NSISSDKEATVPCTEILTEDKDTI
5.68

I'm hoping you can list protein stability index for every variant here, please.
1. NSIYSDKEATVPCTEILTEKKDTI
2. NSISSDKKATVPCTEILTEKKDTI
3. NSISSDKEATVPETEILTEKKDTI
4. NSISSDKEATVPCTEWLTEKKDTI
5. KSISSDKEATVPCTEILTEKKDTI

Return:
1. 5.44
2. 5.46
3. 5.57
4. 5.26
5. 5.76

Enquiry: State the recorded protein stability index for this entry: NSISSDKEATVPCTEILTRKKDTI
Return: 5.42
